Data origin, for the record: ChEMBL document CHEMBL1141876

Each entry below carries its reported CC50.
test system: Panel NCI-60 (60 carcinoma cell lines); assay: Mean in vitro LC50 value against 60 human cancer cell line was determined; assay type: functional; details: read-out: LC50 (the source's name)
readout_type: CC50 (µM)

>  <compound>
Cc1ccc(S(=O)(=O)n2c(C3(O)C=CC(=O)c4ccccc43)cc3ccccc32)cc1 (centres undefined)

>  <data_value>
5.62

$$$$
>  <compound>
O=C1C=CC(O)(c2cc3cc(F)ccc3n2S(=O)(=O)c2ccccc2)C=C1

>  <data_value>
3.23

$$$$
>  <compound>
O=C1C=CC(O)(c2cc3ccccc3n2S(=O)(=O)c2ccccc2)c2ccccc21 (centres undefined)

>  <data_value>
7.76

$$$$
>  <compound>
O=C1C=CC(O)(c2cc3ccc(F)cc3n2S(=O)(=O)c2ccccc2)C=C1

>  <data_value>
2.24

$$$$
>  <compound>
COc1ccc(S(=O)(=O)n2c(C3(O)C=CC(=O)C=C3)cc3ccccc32)cc1

>  <data_value>
6.31

$$$$
>  <compound>
O=C1C=CC(O)(c2cc3ccccc3n2S(=O)(=O)c2ccc(F)cc2)C=C1

>  <data_value>
7.76

$$$$
>  <compound>
CC(C)c1cc(C(C)C)c(S(=O)(=O)n2c(C3(O)C=CC(=O)C=C3)cc3ccccc32)c(C(C)C)c1

>  <data_value>
11.2

$$$$
>  <compound>
O=C1C=CC(O)(c2cc3ccccc3n2S(=O)(=O)c2ccc3ccccc3c2)C=C1

>  <data_value>
5.62

$$$$
>  <compound>
COc1ccc2c(c1)cc(C1(O)C=CC(=O)C=C1)n2S(=O)(=O)c1ccccc1

>  <data_value>
6.17

$$$$
